experiment: Phase 1 DDI study 004 part A: lemborexant plasma PK with/without itraconazole; type: in vivo, human; settings: human, plasma, 10 mg, AUC0‐t, Mean (SD), lemborexant 10 mg alone, itraconazole cohort
endpoint_name: AUC (ng·h/mL)
Kindly answer with a numeric value in ng·h/mL, unit omitted.

The value of AUC measured for the compound Cc1ncc(OC[C@@]2(c3cccc(F)c3)C[C@H]2C(=O)Nc2ccc(F)cn2)c(C)n1 [Lemborexant] turned out to be 437

###

test: Phase 1 DDI study 004 part A: lemborexant plasma PK with/without itraconazole; type: in vivo, human; conditions: human, plasma, 10 mg
endpoint_name: half-life (h)
Write the answer as a number in h, unit excluded.

Input Cc1ncc(OC[C@@]2(c3cccc(F)c3)C[C@H]2C(=O)Nc2ccc(F)cn2)c(C)n1 [Lemborexant] . Output half-life: 54.4

###

experiment: Phase 1 DDI study 004 part B: midazolam; conditions: human, plasma, AUC0‐inf, Geometric LSM, midazolam 2 mg + bupropion 75 mg + lemborexant 10 mg daily
endpoint_name: AUC (ng·h/mL)
Field format: number, assumed ng·h/mL, no unit text.

Recorded result, Cc1ncc2n1-c1ccc(Cl)cc1C(c1ccccc1F)=NC2 , AUC: 24.1

###

assay: Phase 1 DDI study 012: lemborexant plasma PK with/without fluconazole; assay type: in vivo, human; conditions: human, plasma, AUC0‐t, Mean (SD), lemborexant 10 mg + fluconazole 200 mg
endpoint_name: AUC (µg·h/mL)
Report only the number, with the unit µg·h/mL understood.

Note to self: AUC recorded for Cc1ncc(OC[C@@]2(c3cccc(F)c3)C[C@H]2C(=O)Nc2ccc(F)cn2)c(C)n1 was 1.36

###

experiment: Phase 1 DDI study 012: lemborexant plasma PK with/without fluconazole; type: in vivo, human; details: human, plasma, AUC0‐inf, Mean (SD), lemborexant 10 mg + fluconazole 200 mg
endpoint_name: AUC (ng·h/mL)
// units = ng·h/mL; emit number, no label

Record summary for Cc1ncc(OC[C@@]2(c3cccc(F)c3)C[C@H]2C(=O)Nc2ccc(F)cn2)c(C)n1 : reported AUC = 1540
